target: Lethal factor (Bacillus anthracis) (UniProt P15917); test: Lethal factor protease inhibitors, Bacillus anthracis, multiplex microsphere cleavage assay, validation set (AID 588461); conditions: flow cytometry, at 10 µM, stronger effect = higher value
Exercise: for every item that follows, state its recorded inhibition.
Give bare numbers, in %.

Consider the following illustrative entries.
COc1cc(NC(=S)NN2CCN(C)CC2)cc(OC)c1OC ... -5.6
CC(C)C(=O)Nc1c(O)c2ccccc2[nH]c1=O ... 1.1
Cc1nonc1CN(C)C(=O)c1ccc(OC2CCN(Cc3ccccn3)CC2)cc1 ... -0.2

For each entry beneath this line, provide reported inhibition.
1. CC(=O)N(CCC1(c2ccc(C)cc2)CCOC(C(C)C)C1)Cc1ccco1 (stereo not given)
2. CC12CC[C@H]3[C@@H](CCC4(O)C[C@H](O)CCC34/C=N/NC(=O)Cc3ccccc3)C1(O)CCC2C1=CC(=O)OC1 (stereo not given in full)
3. Nc1ccc(S(=O)(=O)c2ccc(N)cc2)cc1
4. NC(=O)[C@@H]1[C@@H]2C(=O)N(c3ccc(F)cc3)C(=O)[C@@H]2[C@H]2C=Cc3ccccc3N21

Response line:
1. -7.5
2. 3.2
3. 4.9
4. -5.6

For each listed entry, give its inhibition.
1. COc1ccc(CCNC(=O)C(=O)Nc2ccc3c(c2)OCO3)cc1OC
2. Cc1ccc(S(=O)(=O)NC(C(=O)Oc2ccc3c(C(F)(F)F)cc(=O)oc3c2)c2ccccc2)cc1 (stereo not given)
3. O=C(CCC1CCCN(C(=O)c2ccsc2)C1)NCc1ccc(F)c(F)c1 (stereo not given)

Response line:
[-0.3, -1.3, -6.8]

###

biological target: Integrin beta-1 (Homo sapiens) + Integrin alpha-4 (Homo sapiens) (UniProt P13612+P05556); assay: inhibition of HUTS-21 binding to VLA-4, pilot screen, VLA-4 allosteric modulator project, U937 cells, HUTS-21 mAb, flow cytometry, validation set (AID 2674); conditions: HUTS-21 LIBS mAb binding, at 6.7 µM, stronger effect = higher value;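 also: antibody binding induced by the VLA-4 ligand LDV present at three times its Kd; 0% = LDV ligand with antibody and no compound and 100% = antibody without LDV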
measured parameter: inhibition (%)
Numbers only, in %.

c1ccc2c(c1)Nc1ccccc1S2 ... 12.3

Please report inhibition for every entry that follows.
1. CC(Cc1ccccc1)NCC(=O)Nc1cc(N(C)C)nc2ccccc12 (stereo unspecified)
2. [N-]=[N+]=NC1C[C@H](n2ccc(=O)[nH]c2=O)O[C@@H]1CO (stereo partly specified)
3. CN1[C@@H]2CC[C@H]1CC(OC(=O)C1C=Nc3ccccc31)C2 (stereo partly specified)
4. C[C@]12CCC(=O)C=C1CC[C@@H]1[C@@H]2CC[C@]2(C)C(=O)CC[C@@H]12
5. S=C1NCCN1

Response line:
-40.4
9.09
20.3
1.62
6.29

###

Would you mind telling me the reported inhibition of each entry?
molecular target: Botulinum neurotoxin type A (Clostridium botulinum); assay: BoNT/A light chain protease inhibitors, biochemical, multiplex microsphere flow cytometry, validation set (AID 588460); settings: at 10 µM, stronger effect = higher value
Answers are plain numbers, in %.

Worked set:
O=[N+]([O-])c1ccc2cn[nH]c2c1 ... -0.5
COc1cc(NC(=O)COc2ccccc2)c(OC)cc1NC(C)=O ... 1.2
COc1cc2c(cc1OC)-c1cc(NC3CCCCCC3)nc(=O)n1CC2 ... -1.4
CN1C(=O)C(O)(CC(=O)/C=C/C=C/c2ccccc2)c2ccccc21 (stereo not given) ... -0.3
CCOc1ccc(N2C(=O)CNC2=S)cc1 ... -1.5

Below is a list of molecules. For each, state its recorded inhibition.
1. NCC(O)c1ccc(O)cc1 (stereo not given)
2. N#C/C(C(N)=O)=c1/ccc2c(c1)N1C3=C(CCCC3)CC3CCCCC31N=2 (stereo not given)
3. O=C(CCC(=O)NCCO)NCCO
4. C=CCNc1nc2c(c(=O)n(C)c(=O)n2C)n1CC(=C)C

Response line:
1: 1; 2: 2.4; 3: 0.4; 4: 0.5

Respectfully, I request inhibition for each entry included below.
1. CC[C@H](C)C(=O)O[C@H]1C[C@@H](C)C=C2C=C[C@H](C)[C@H](CC[C@@H]3C[C@@H](O)CC(=O)O3)[C@H]21
2. CNC[C@H](O)c1ccc(O)c(O)c1
3. Cc1nc(N)sc1C(=O)N/N=C/c1ccco1
4. CCNC1=C(Cl)C(=O)c2ccccc2C1=O

Response line:
1. 0.7
2. -0.9
3. 0.1
4. -0.3

I need inhibition for every entry listed below, if you could help.
1. CCOC(=O)C1(Cc2cccc(Cl)c2)CCCN(C2CCN(C(C)=O)CC2)C1 (stereo not given)
2. COc1ccc(CN2CC3CC(C2)c2cccc(=O)n2C3)cc1OC (stereo not given)
3. CCOC(=O)C(=O)Nc1ccc(Oc2ccccc2)cc1
4. CC1(C)CC(=O)c2c(nc3ccccc3c2N)C1
5. COc1ccc(C(=O)Nc2cccc3cccnc23)cc1OC
6. Cc1ccc(/C=C2/C(=O)NC(=O)N(C)C2=O)cc1

Response line:
[0.7, -1.2, 0, -0.5, -2.2, 1.8]

Look at each molecule and report its inhibition.
1. CC(=O)c1cc2c(cc1NC(=O)c1ccco1)OCCO2
2. COc1ccc(/C=C2\CCn3c2nc2cc(C(=O)O)ccc2c3=O)cc1OC
3. C[N+](C)(C)CCCCCCCCCC[N+](C)(C)C
4. NS(=O)(=O)c1cc2c(cc1Cl)NC(C(Cl)Cl)NS2(=O)=O (stereo not given)
5. NCCOc1ccccc1OCCN
6. c1ccc2c(c1)CCCC2C1=NCCN1 (stereo not given)

Response line:
[-1.3, 1, -0.8, 0.1, -0.4, 0.9]

###

Please go through the items and note down their inhibition.
target: Integrin beta-1 (Homo sapiens) + Integrin alpha-4 (Homo sapiens) (UniProt P13612+P05556); assay: inhibition of HUTS-21 binding to VLA-4, pilot screen, VLA-4 allosteric modulator project, U937 cells, HUTS-21 mAb, flow cytometry, validation set (AID 2674); settings: HUTS-21 LIBS mAb binding, at 6.7 µM, stronger effect = higher value;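 also: antibody binding induced by the VLA-4 ligand LDV present at three times its Kd; 0% = LDV ligand with antibody and no compound and 100% = antibody without LDV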
One number for each entry, in %.

C[C@H](O)[C@H]1CC[C@H]2[C@@H]3CCC4=CC(=O)CC[C@]4(C)[C@H]3CC[C@]12C ... 11

Would you mind listing inhibition for each of the following compounds?
1. C[N+]1(C)[C@@H]2CC[C@H]1CC(OC(=O)C(CO)c1ccccc1)C2 (some centres undefined)
2. CN1CC[C@@]23CCCC[C@@H]2[C@@H]1Cc1ccc(O)cc13
3. CC(CCc1ccccc1)NC(C)C(O)c1ccc(O)cc1 (centres undefined)
4. CC(C)(C)C(O)C(Oc1ccc(Cl)cc1)n1cncn1 (centres undefined)
5. CCOc1ccc(N2C(=O)NC(=O)/C(=C\c3cc(OC)c(OC)cc3[N+](=O)[O-])C2=O)cc1
6. CC[C@@H](CO)NC(=O)[C@@H]1C=C2c3cccc4c3c(cn4C)C[C@H]2N(C)C1

Response line:
[-14.1, -0.45, -20.8, 1.44, -7.79, 8.15]

Please report inhibition for every entry that follows.
1. CC12CN3CC(C)(CN(C1)C3c1cccs1)C2O (centres undefined)
2. O=C1C=Cc2ccccc2C1=O

Response line:
[4.73, -65.3]

###

Please respond with reported inhibition for every item in the list.
biological target: Botulinum neurotoxin type A (Clostridium botulinum) (UniProt P0DPI0); assay: BoNT/A light chain protease inhibitors, biochemical, multiplex microsphere flow cytometry, validation set (AID 588460); conditions: at 10 µM, stronger effect = higher value
Numbers only, in %.

CC(CCc1ccccc1)NC(C)C(O)c1ccc(O)cc1 (stereo not drawn) ... -0.8

Would you be so kind as to report inhibition for each listed record?
1. CCc1ccc(CN(C)Cc2nc(Cc3ccccc3)no2)nc1
2. COC(=O)c1ccc(CC(=O)c2ccc(O)cc2O)o1

Response line:
[0.5, -0.8]

###

test system: Botulinum neurotoxin type F light chain protease (Clostridium botulinum); assay: Botulinum neurotoxin type F light chain protease inhibition, multiplex microsphere flow cytometry, validation set (AID 588459); conditions: multiplex microsphere protease substrate cleavage assay, at 10 µM, stronger effect = higher value
measured parameter: inhibition (%)
Numbers only, in %.

For every item below, please supply its inhibition.
1. CNc1c2c(nn1C)CCCC2
2. COc1ccccc1OS(=O)(=O)c1ccc(NC(C)=O)cc1
3. CCc1cc2c(=O)c(-c3nc4ccccc4n3C)coc2c(CN2CCN(C)CC2)c1O
4. COc1ccc2c(c1)[nH]c1c(=O)n(Cc3ccccn3)cnc12
5. Cc1c(OCC(F)(F)F)ccnc1CS(=O)c1nc2ccccc2[nH]1 (centres undefined)
6. Cc1nc(C(=O)Nc2ccccc2Cl)cc2c1[nH]c1ccccc12

Response line:
1: 0.6; 2: -1.9; 3: -0.9; 4: 3.9; 5: -1; 6: -0.3

Value sought for every listed compound: inhibition.
1. N#C/C(C(N)=O)=c1/ccc2c(c1)N1C3=C(CCCC3)CC3CCCCC31N=2 (centres undefined)
2. Cc1cc(/C=N/O)c(C)n1-c1ccc(Br)cc1
3. CCNC(=S)N1CCN(CCN2C(=O)c3cccc4cccc(c34)C2=O)CC1
4. Cn1c2c(c(=O)[nH]c1=O)C(c1ccc(O)cc1)C1=C(N2)c2ccccc2C1=O (centres undefined)
5. Cc1ccc(-n2c(C)cc(/C=C3/C(=O)NC(=O)N(C)C3=O)c2C)cc1
6. CCc1ccc(/C=C2\Oc3cc(OC(=O)N4CCOCC4)ccc3C2=O)cc1
7. CC(C(=O)O)c1ccc(-c2ccccc2)c(F)c1 (centres undefined)

Response line:
[-0.8, 1.9, 5.8, -0.8, -1.4, 0.7, 5.7]

I have 4 compounds here; please give me inhibition for each one.
1. O=C(NCCc1cccc(F)c1)[C@@H]1CSC2c3ccccc3C(=O)N21 (some centres undefined)
2. C1CCC(C(CC2CCCCN2)C2CCCCC2)CC1 (centres undefined)
3. O=C(COc1ccccc1)N1CCN(c2ccccc2)CC1
4. O=C1OC(=O)C2C1[C@@H]1CC[C@H]2O1 (some centres undefined)

Response line:
[0.2, -7.7, -3.8, 1.3]

Look up inhibition for the entries below, preserving their order.
1. NC(=O)N1c2ccccc2C=Cc2ccccc21
2. COc1ccc2cc(C3(C)NC(=O)NC3=O)ccc2c1 (centres undefined)
3. CSc1ccc(/C=N/N2CCN(Cc3ccc(C)cc3C)CC2)cc1
4. COCCOC(=O)c1c(C)oc2ccc(OCc3cc(C(=O)OC)oc3C)cc12
5. COc1ccc2[nH]c(=O)c(CN(C(=O)c3ccco3)C(C)C)cc2c1

Response line:
1: 1.3; 2: -0.4; 3: -0.3; 4: -0.6; 5: 0.1

// for each compound below, give its inhibition
1. Cc1ccc2[nH]c3c(c2c1)CN(C(=O)CN1CCSCC1)CC3
2. CN(C)CCCN1c2ccccc2Sc2ccccc21

Response line:
1: 61.5; 2: -0.5
